# assayed-target: Biotinylated recombinant human CD3εδ (Acro Biosystems, CDD-H82W6) (human) (UniProt P07766)
# Sequence (P07766 23-126, stated change not applied, chain 1 of 2): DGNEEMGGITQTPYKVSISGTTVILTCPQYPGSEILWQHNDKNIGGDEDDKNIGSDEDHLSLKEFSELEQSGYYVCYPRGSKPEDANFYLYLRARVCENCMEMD
# Sequence (P04234 22-105, stated change not applied, chain 2 of 2, further chain): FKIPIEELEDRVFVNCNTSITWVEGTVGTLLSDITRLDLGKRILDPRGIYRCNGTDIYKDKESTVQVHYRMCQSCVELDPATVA
# test-details: Octet BLI, biotinylated CD3εδ on streptavidin sensors, 1:1 model
measured-parameter: kon (M⁻¹ s⁻¹)
One number for each entry, in M⁻¹ s⁻¹.

Would you please look over these solved cases?
binder | measurement-units | kon
EGFR-CD3 DuetMab with anti-CD3 variant AZ Vκ 26 + AZ VH E75 (bispecific antibody, part only; not given: anti-EGFR arm, constant regions, V domains shown, not shown: another chain or arm of the molecule; a dimerising Fc or GST; small tags and cut ends) VH: EVQLVESGGALVKPGGSLRLSCAASGFTFTEAWMHWVRQAPGKQLEWVAQIKDRSQTYATYYAESVKGRFTISRDDSKNTLYLQMNSLKTEDTAVYYCRGVYYANAPFDYWGQGTLVTVSS VL: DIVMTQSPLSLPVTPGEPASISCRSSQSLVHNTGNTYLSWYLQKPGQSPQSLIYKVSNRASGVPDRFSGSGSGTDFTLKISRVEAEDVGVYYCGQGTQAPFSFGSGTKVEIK | M⁻¹ s⁻¹ | 7540
EGFR-CD3 DuetMab with anti-CD3 variant AZ Vκ 26 + AZ VH R75 (bispecific antibody, part only; not given: anti-EGFR arm, constant regions, V domains shown, not shown: another chain or arm of the molecule; a dimerising Fc or GST; small tags and cut ends) VH: EVQLVESGGALVKPGGSLRLSCAASGFTFTRAWMHWVRQAPGKQLEWVAQIKDRSQTYATYYAESVKGRFTISRDDSKNTLYLQMNSLKTEDTAVYYCRGVYYANAPFDYWGQGTLVTVSS VL: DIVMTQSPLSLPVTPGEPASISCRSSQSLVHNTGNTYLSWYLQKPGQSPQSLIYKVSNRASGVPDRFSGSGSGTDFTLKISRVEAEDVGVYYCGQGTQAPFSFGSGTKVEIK | M⁻¹ s⁻¹ | 27900
EGFR-CD3 DuetMab with anti-CD3 variant AZ Vκ 29 + AZ VH E82 (bispecific antibody, part only; not given: anti-EGFR arm, constant regions, V domains shown, not shown: another chain or arm of the molecule; a dimerising Fc or GST; small tags and cut ends) VH: EVQLVESGGALVKPGGSLRLSCAASGFTFTEAWMHWVRQAPGKQLEWVAQIKDRSQTYATYYAESVKGRFTISRDDSKNTLYLQMNSLKTEDTAVYYCRGVYYANTPFDYWGQGTLVTVSS VL: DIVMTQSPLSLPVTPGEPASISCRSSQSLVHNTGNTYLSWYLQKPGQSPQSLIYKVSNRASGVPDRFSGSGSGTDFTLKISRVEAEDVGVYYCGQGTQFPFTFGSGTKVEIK | M⁻¹ s⁻¹ | 15100
EGFR-CD3 DuetMab with anti-CD3 variant AZ Vκ 29 + AZ VH R75 (bispecific antibody, part only; not given: anti-EGFR arm, constant regions, V domains shown, not shown: another chain or arm of the molecule; a dimerising Fc or GST; small tags and cut ends) VH: EVQLVESGGALVKPGGSLRLSCAASGFTFTRAWMHWVRQAPGKQLEWVAQIKDRSQTYATYYAESVKGRFTISRDDSKNTLYLQMNSLKTEDTAVYYCRGVYYANAPFDYWGQGTLVTVSS VL: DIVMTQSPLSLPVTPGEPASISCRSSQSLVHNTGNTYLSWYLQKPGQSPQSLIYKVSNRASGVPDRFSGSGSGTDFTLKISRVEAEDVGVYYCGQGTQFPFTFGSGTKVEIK | M⁻¹ s⁻¹ | 53300

Item EGFR-CD3 DuetMab with anti-CD3 variant AZ Vκ 29 + AZ VH SN75 (bispecific antibody, part only; not given: anti-EGFR arm, constant regions, V domains shown, not shown: another chain or arm of the molecule; a dimerising Fc or GST; small tags and cut ends) VH: EVQLVESGGALVKPGGSLRLSCAASGFTFSNAWMHWVRQAPGKQLEWVAQIKDRSQTYATYYAESVKGRFTISRDDSKNTLYLQMNSLKTEDTAVYYCRGVYYANAPFDYWGQGTLVTVSS VL: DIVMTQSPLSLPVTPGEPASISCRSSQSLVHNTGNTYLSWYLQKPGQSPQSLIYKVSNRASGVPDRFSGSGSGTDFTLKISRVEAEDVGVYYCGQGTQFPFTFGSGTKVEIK has what recorded kon? 27900
